Test system: CHO-K1
Test: benchmark concentration for 30% increase in micronucleus frequency (BMC30); higher = less potent clastogen
Details: S9 metabolic activation: with S9
Counter-ions that a name gives are not always drawn.
Label Yes when benchmark concentration is at or above 30 µM; anything below gets No.

benchmark concentration >= 30 µM for CC(=O)OC1CC(C)OC(C)O1 (centres undefined) ?
Yes

benchmark concentration >= 30 µM for "Nc1ccc2c(c1)C(=O)c1ccccc1C2=O" ?
No

benchmark concentration >= 30 µM for "CN(C)c1ccc(C(=O)c2ccc(N(C)C)cc2)cc1" ?
No

benchmark concentration >= 30 µM for "C#C[C@]1(O)CC[C@H]2[C@@H]3CCc4cc(O)ccc4[C@H]3CC[C@@]21C" ?
Yes

benchmark concentration >= 30 µM for "CN(C)c1ccc(Cc2ccc(N(C)C)cc2)cc1" ?
Yes

benchmark concentration >= 30 µM for COC(=O)c1ccccc1O [Methyl salicylate] ?
Yes

benchmark concentration >= 30 µM for "ClC1=C(Cl)C(Cl)(Cl)C(Cl)=C1Cl" ?
No

benchmark concentration >= 30 µM for O=c1n(CC2CO2)c(=O)n(CC2CO2)c(=O)n1CC1CO1 (centres undefined) [Triglycidyl isocyanurate] ?
No

benchmark concentration >= 30 µM for CCCCc1oc2ccccc2c1C(=O)c1cc(I)c(OCCN(CC)CC)c(I)c1 [Amiodarone hydrochloride] ?
No

---

Test system: CHO-K1
Test: benchmark concentration for 30% increase in micronucleus frequency (BMC30); higher = less potent clastogen
Details: S9 metabolic activation: with S9
Label t when benchmark concentration is at or above 50 µM; anything below gets f.

benchmark concentration >= 50 µM for Oc1ccc(Cl)cc1Cl [2,4-Dichlorophenol] ?
f

benchmark concentration >= 50 µM for CCOP(=S)(OCC)Oc1nc(Cl)c(Cl)cc1Cl [Chlorpyrifos] ?
f

benchmark concentration >= 50 µM for CCCN(CCC)N=O [N-Nitrosodipropylamine] ?
f

benchmark concentration >= 50 µM for CCOCN(C(=O)CCl)c1c(C)cccc1CC [Acetochlor] ?
t

benchmark concentration >= 50 µM for Nc1nc(=S)c2[nH]cnc2[nH]1 [6-Thioguanine] ?
f

benchmark concentration >= 50 µM for C=CC(N)=O [Acrylamide] ?
f

benchmark concentration >= 50 µM for Nc1ccc(Nc2ccccc2)cc1 [N-Phenyl-1,4-benzenediamine] ?
t

benchmark concentration >= 50 µM for O=C(O)C1=NN(c2ccc(S(=O)(=O)O)cc2)C(=O)C1N=Nc1ccc(S(=O)(=O)O)cc1 (stereo unspecified) [FD&C Yellow 5] ?
f

benchmark concentration >= 50 µM for CCCOC(=O)c1ccc(O)cc1 [Propylparaben] ?
f

benchmark concentration >= 50 µM for Cc1cccc([N+](=O)[O-])c1C [1,2-Dimethyl-3-nitrobenzene] ?
t

benchmark concentration >= 50 µM for c1cc2c3c(cccc3c1)CC2 [Acenaphthene] ?
t

---

Tested on: CHO-K1
Experiment: benchmark concentration for 30% increase in micronucleus frequency (BMC30); higher = less potent clastogen
Conditions: S9 metabolic activation: with S9
Where a name gives a salt, the structure may show the parent alone.
recorded-endpoint: benchmark concentration (µM)
Field format: number, assumed µM, no unit text.

Read off the recorded benchmark concentration for O=C(c1ccc(OCCN2CCCCC2)cc1)c1c(-c2ccc(O)cc2)sc2cc(O)ccc12 [Raloxifene hydrochloride]
70

Read off the recorded benchmark concentration for CCCOC(=O)c1cc(O)c(O)c(O)c1 [Propyl gallate]
24

Read off the recorded benchmark concentration for "O=NN(c1ccccc1)c1ccccc1"
120

Read off the recorded benchmark concentration for "CN(C)c1ccc(C(=C2C=CC(=[N+](C)C)C=C2)c2ccc(N(C)C)cc2)cc1"
0.91

Read off the recorded benchmark concentration for "ClC(Cl)=C(c1ccc(Cl)cc1)c1ccc(Cl)cc1"
51

Read off the recorded benchmark concentration for CC(=O)N1CCN(c2ccc(OCC3COC(Cn4ccnc4)(c4ccc(Cl)cc4Cl)O3)cc2)CC1 (centres undefined)
54

Read off the recorded benchmark concentration for Nc1ccn([C@@H]2O[C@H](CO)[C@@H](O)[C@@H]2O)c(=O)n1 [Cytarabine hydrochloride]
5.9

Read off the recorded benchmark concentration for "c1ccc(/N=N/c2ccccc2)cc1"
32

Read off the recorded benchmark concentration for "CCOC(N)=O"
32

Where do the numbers come from? From the supplement of paper PMC9151546.
